Hey, just so you know, these numbers are from ChEMBL document CHEMBL1129905.

# Tested on: HeLa
# assay-details: Cytotoxic activity was measured in human […] cells (HeLa)
# Format: functional
measurement-name: CC50

Record request: CC50 value, item O=C1c2ccccc2N(Cc2ccccc2)S(=O)(=O)N1COCc1ccccc1
> 50 µg/mL

Record request: CC50 value, item O=C(OCCOCN1c2ccccc2C(=O)N(Cc2ccccc2)S1(=O)=O)c1ccccc1
24 µg/mL

Record request: CC50 value, item Nc1nc2c(ncn2COCCO)c(=O)[nH]1 [ACYCLOVIR]
200 µg/mL

Record request: CC50 value, item C#CCOCN1c2ccccc2C(=O)N(Cc2ccccc2)S1(=O)=O
> 50 µg/mL

Record request: CC50 value, item O=C1c2ccccc2N(COCc2ccccc2)S(=O)(=O)N1Cc1ccccc1
> 50 µg/mL
